subject of test: Yer184c (UniProt P39961)
Sequence: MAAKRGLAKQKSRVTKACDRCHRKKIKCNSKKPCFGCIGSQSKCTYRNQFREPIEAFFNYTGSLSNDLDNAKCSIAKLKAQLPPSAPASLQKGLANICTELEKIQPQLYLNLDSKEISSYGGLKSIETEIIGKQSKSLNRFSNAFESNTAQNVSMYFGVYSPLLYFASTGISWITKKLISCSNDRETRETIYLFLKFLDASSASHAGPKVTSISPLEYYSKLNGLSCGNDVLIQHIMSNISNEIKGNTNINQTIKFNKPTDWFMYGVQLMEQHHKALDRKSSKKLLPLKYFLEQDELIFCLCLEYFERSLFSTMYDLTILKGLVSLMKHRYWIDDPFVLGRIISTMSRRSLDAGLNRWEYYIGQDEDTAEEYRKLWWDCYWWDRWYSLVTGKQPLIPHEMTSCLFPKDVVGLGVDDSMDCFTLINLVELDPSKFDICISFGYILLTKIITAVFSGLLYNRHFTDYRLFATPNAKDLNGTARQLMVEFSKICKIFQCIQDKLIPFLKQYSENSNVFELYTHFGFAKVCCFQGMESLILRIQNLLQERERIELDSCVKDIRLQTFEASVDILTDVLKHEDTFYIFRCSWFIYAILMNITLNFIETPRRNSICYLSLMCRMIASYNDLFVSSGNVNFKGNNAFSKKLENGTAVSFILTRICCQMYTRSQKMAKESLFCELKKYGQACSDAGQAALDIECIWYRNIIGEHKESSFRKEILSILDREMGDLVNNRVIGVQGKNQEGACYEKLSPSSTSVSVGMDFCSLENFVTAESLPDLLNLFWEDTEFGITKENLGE
measurement description: PBM E-score (8-mer binding enrichment) (E-score (-0.5 to 0.5)); higher = stronger / more preferred TF binding
conditions: protein concentration: 100 nM; construct: GST-full length
The full ranking holds about 33,000 sequences; the median of “E-score (-0.5 to 0.5)” is about -0.016, and the highest 2% start at about 0.3. This excerpt belongs to a sample that is enriched for the highest values.
Rule: PBM E-score of 0.2 or more gives satisfied; anything lower gives not satisfied.

CCTAAGTA | not satisfied
ACCCGGCA | not satisfied
ACTGCCGA | satisfied

Could you verify whether the entry ACCCAATC shows PBM E-score of no less than 0.2?
not satisfied

Could you verify whether the entry AGTCCGAT shows PBM E-score of no less than 0.2?
not satisfied

Could you verify whether the entry CTCCGGCA shows PBM E-score of no less than 0.2?
satisfied

Could you verify whether the entry TGTCCGAA shows PBM E-score of no less than 0.2?
satisfied

Could you verify whether the entry CTCTAGTC shows PBM E-score of no less than 0.2?
not satisfied

Could you verify whether the entry ATCCGGCA shows PBM E-score of no less than 0.2?
satisfied

Could you verify whether the entry CGCCGGCA shows PBM E-score of no less than 0.2?
satisfied

Could you verify whether the entry AGCGTTGG shows PBM E-score of no less than 0.2?
not satisfied

* * *

subject of test: Yer184c (UniProt P39961)
Sequence: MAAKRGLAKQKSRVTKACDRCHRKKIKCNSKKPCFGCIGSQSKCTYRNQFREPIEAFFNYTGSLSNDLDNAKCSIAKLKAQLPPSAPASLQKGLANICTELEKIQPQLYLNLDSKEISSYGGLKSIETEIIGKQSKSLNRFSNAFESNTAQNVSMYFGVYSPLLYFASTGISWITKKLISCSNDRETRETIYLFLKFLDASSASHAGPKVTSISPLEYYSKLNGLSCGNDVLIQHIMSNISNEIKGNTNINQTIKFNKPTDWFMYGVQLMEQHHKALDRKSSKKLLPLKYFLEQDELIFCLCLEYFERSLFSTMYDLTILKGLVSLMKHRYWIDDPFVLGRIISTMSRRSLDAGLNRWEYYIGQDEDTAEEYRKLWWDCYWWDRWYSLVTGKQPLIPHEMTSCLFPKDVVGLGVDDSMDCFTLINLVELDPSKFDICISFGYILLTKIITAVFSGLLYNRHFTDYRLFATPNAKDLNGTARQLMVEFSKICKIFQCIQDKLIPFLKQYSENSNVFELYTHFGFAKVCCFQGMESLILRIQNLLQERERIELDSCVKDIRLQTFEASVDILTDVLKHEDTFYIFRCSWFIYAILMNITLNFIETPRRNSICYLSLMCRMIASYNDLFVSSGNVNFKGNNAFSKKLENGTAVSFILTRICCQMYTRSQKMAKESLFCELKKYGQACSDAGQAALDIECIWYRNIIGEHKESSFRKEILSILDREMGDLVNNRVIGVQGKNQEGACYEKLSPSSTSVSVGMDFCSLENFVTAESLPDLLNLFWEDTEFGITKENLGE
measurement description: PBM E-score (8-mer binding enrichment) (E-score (-0.5 to 0.5)); higher = stronger / more preferred TF binding
conditions: protein concentration: 100 nM; construct: GST-full length
Whole data set: some 33,000 sequences, median “E-score (-0.5 to 0.5)” near -0.016, cut for the highest 2% near 0.3. The list comes from a sample in which the highest values are over-represented; it also holds close analogues and randomly drawn sequences.
Consider the following sequences; for each one, report its PBM E-score.

Known results for sequences:
AGATATCC | 0.0863
CCTCGAGG | -0.112
ATTGTTGA | 0.141
ACTTTCTA | -0.0235

Field: PBM E-score. Fill in for each record below.
1. GGTATCAA
2. ACATCTCG
3. ACGGCACA

-0.0802
0.00537
0.0865

Field: PBM E-score. Fill in for each record below.
1. ATTTCCGA
2. AGCAGCAT
3. ATGCCGAC
4. CGGGAAAC
5. AAGGCCGT
6. CTGCCGAA
7. ATAGCCGG

1: 0.359; 2: -0.206; 3: 0.243; 4: 0.286; 5: 0.156; 6: 0.297; 7: 0.388

Field: PBM E-score. Fill in for each record below.
1. ATGCCGTG
2. CAAGCGTC
3. GTGCCGAA
4. CGCCCCTC
5. AAAGGCAT
6. ATGCCGTA
7. CATCTTGC

[0.115, -0.0502, 0.387, -0.199, 0.141, 0.196, 0.0249]

Field: PBM E-score. Fill in for each record below.
1. CGAGACGA
2. ACAGCTAA
3. AAACAATA
4. GGAGGGCC

1. -0.0371
2. -0.0181
3. 0.282
4. -0.308
